MEASURED_ON: Presenilin-1 (Homo sapiens, UniProt P49768)
TEST: Inhibition of wild-type human presenilin-1 stably overexpressed in CHO cells co-expressing wild-type human amyloid precursor protein assessed as inhibition of amyloid beta 42 formation after 24 hrs by ELISA
pIC50: −log10 of the molar value.
Quick rule: pIC50 of at least 5 means criterion met, below that means criterion not met.

# MOLECULE, MEASURED_ON, DISCRETE_LABEL
measured = [
    ("CCCC/C(=C\\c1cc(OCc2ccc3nc(C(F)(F)F)cc(OC)c3c2)ccc1OCc1ccc(C(F)(F)F)cc1)C(=O)O", "Presenilin-1 (Homo sapiens, UniProt P49768)", "criterion met"),
    ("CCCC/C(=C\\c1cc(OCc2ccc(F)cc2)ccc1OCc1ccc(C(F)(F)F)cc1)C(=O)O", "Presenilin-1 (Homo sapiens, UniProt P49768)", "criterion met"),
    ("CCCC/C(=C\\c1cc(OCc2ccc(CCCC)cc2)ccc1OCc1ccc(C(F)(F)F)cc1)C(=O)O", "Presenilin-1 (Homo sapiens, UniProt P49768)", "criterion met"),
    ("CCCC/C(=C\\c1cc(OCc2cccnc2)ccc1OCc1ccc(C(F)(F)F)cc1)C(=O)O", "Presenilin-1 (Homo sapiens, UniProt P49768)", "criterion not met"),
    ("CCCCC(Sc1nc(OCCc2ccccc2)cc(OCCc2ccccc2)n1)C(=O)O (stereo unspecified)", "Presenilin-1 (Homo sapiens, UniProt P49768)", "criterion not met"),
    ("CCCC/C(=C\\c1cc(OCc2ccccc2)ccc1OCc1ccc(C(F)(F)F)cc1)C(=O)O", "Presenilin-1 (Homo sapiens, UniProt P49768)", "criterion not met"),
    ("CCCC/C(=C\\c1cc(Oc2ccccc2)ccc1OCc1ccc(C(F)(F)F)cc1)C(=O)O", "Presenilin-1 (Homo sapiens, UniProt P49768)", "criterion not met"),
    ("CCCC/C(=C\\c1cc(OCc2cc3ccccc3s2)ccc1OCc1ccc(C(F)(F)F)cc1)C(=O)O", "Presenilin-1 (Homo sapiens, UniProt P49768)", "criterion met"),
    ("CCCC/C(=C\\c1cc(OCC2CCC(C(F)(F)F)CC2)ccc1OCc1ccc(C(F)(F)F)cc1)C(=O)O (stereo unspecified)", "Presenilin-1 (Homo sapiens, UniProt P49768)", "criterion met"),
    ("CCCC/C(=C\\c1cc(OCc2cc(C(F)(F)F)cc(C(F)(F)F)c2)ccc1OCc1ccc(C(F)(F)F)cc1)C(=O)O", "Presenilin-1 (Homo sapiens, UniProt P49768)", "criterion met"),
    ("CCCC/C(=C\\c1cc(OCc2ccc(Oc3ccccn3)cc2)ccc1OCc1ccc(C(F)(F)F)cc1)C(=O)O", "Presenilin-1 (Homo sapiens, UniProt P49768)", "criterion met"),
    ("CCCC/C(=C\\c1cc(OCc2ccc(Cl)c(Cl)c2)ccc1OCc1ccc(C(F)(F)F)cc1)C(=O)O", "Presenilin-1 (Homo sapiens, UniProt P49768)", "criterion met"),
]

* * *

MEASURED_ON: UniProtKB P46531
Sequence (P46531 whole entry): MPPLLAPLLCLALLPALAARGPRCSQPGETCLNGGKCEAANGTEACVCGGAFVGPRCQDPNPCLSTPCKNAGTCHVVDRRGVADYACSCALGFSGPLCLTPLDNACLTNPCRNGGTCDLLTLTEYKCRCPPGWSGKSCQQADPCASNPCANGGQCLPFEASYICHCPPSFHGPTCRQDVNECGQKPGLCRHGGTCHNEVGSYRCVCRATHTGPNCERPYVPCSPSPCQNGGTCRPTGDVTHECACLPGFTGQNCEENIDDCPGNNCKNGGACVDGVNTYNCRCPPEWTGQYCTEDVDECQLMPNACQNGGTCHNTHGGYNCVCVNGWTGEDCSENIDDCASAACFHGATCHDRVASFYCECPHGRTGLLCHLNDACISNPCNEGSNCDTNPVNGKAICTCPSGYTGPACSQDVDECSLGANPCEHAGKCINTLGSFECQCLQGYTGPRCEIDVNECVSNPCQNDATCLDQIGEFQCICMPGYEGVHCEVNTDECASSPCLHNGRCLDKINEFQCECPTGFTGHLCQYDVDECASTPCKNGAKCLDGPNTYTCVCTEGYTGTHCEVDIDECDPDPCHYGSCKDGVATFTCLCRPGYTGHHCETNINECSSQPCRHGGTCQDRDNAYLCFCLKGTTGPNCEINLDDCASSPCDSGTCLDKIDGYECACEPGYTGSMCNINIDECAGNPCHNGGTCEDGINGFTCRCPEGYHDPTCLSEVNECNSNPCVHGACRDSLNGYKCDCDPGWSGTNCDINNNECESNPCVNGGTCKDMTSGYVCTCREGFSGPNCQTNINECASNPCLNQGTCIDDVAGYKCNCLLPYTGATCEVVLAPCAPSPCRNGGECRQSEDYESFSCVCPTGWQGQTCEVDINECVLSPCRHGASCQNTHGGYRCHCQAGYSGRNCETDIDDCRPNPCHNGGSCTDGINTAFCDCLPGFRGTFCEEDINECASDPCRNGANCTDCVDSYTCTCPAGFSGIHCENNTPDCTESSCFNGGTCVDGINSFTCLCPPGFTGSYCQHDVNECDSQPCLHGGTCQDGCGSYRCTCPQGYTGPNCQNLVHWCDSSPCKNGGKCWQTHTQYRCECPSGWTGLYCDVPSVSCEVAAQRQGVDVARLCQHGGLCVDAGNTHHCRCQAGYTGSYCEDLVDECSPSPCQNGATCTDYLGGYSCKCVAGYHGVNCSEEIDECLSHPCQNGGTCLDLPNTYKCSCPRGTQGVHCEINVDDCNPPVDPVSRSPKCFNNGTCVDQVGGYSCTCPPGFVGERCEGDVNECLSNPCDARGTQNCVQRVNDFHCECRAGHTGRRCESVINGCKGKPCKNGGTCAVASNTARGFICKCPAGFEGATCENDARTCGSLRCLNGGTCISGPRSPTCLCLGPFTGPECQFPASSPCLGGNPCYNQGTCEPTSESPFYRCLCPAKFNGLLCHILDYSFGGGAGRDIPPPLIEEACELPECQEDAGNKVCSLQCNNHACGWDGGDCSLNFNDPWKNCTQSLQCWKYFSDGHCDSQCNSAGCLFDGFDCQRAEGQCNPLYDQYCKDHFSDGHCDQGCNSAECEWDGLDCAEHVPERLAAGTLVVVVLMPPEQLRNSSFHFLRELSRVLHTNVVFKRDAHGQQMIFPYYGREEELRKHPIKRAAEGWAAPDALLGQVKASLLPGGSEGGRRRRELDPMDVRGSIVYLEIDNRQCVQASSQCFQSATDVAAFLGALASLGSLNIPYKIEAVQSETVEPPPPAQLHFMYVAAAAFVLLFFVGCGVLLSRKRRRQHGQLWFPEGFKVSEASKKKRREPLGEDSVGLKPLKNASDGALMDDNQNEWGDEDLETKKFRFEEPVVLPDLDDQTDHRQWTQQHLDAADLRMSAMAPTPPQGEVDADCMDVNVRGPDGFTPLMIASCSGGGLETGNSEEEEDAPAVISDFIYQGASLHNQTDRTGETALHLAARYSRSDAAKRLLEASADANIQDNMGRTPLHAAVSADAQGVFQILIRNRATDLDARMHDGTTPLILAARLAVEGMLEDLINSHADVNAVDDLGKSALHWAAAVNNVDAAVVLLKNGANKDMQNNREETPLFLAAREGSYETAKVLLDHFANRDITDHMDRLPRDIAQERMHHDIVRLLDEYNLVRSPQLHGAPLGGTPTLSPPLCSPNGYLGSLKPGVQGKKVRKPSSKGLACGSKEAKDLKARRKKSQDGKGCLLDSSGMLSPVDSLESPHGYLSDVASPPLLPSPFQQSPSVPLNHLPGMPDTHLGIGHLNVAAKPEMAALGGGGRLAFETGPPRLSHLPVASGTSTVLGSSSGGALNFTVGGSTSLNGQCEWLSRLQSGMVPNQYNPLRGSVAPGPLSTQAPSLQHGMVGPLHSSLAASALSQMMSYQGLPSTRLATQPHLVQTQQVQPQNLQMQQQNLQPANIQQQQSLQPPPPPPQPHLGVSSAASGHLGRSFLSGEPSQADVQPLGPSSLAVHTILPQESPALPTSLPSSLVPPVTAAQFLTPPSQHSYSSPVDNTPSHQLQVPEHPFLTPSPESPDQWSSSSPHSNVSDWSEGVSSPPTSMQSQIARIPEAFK
TEST: Inhibition of NOTCH-1 signaling (unknown origin) expressed in CHO cells at 0.5 uM after 24 hrs by dual luciferase reporter gene assay
Type: cell-based
RECORDED_CONDITIONS: CHO cells expressing NOTCH-1

# SMILES_REPRESENTATION, inhibition at 24 h, 0.5 µM
rows = [
    ("C[C@H](NC(=O)[C@@H](O)c1cc(F)cc(F)c1)C(=O)N[C@@H]1C(=O)N(C)c2ccccc2-c2ccccc21", "> 75%"),
]

* * *

TEST: Cytotoxicity against CHO cells assessed as cell viability up to 30 uM after 24 hrs by alamar blue assay
Type: cell-based, Cricetulus griseus
RECORDED_CONDITIONS: chinese hamster, read-out: Activity
Reported viability at 24 h values are given for each entry in this list.

# MOLECULE, viability at 24 h
records = [
    ("CCCC/C(=C\\c1cc(OCc2cc(C(F)(F)F)cc(C(F)(F)F)c2)ccc1OCc1ccc(C(F)(F)F)cc1)C(=O)O", "> 50%"),
    ("CCCC/C(=C\\c1cc(OCC2CCC(C(F)(F)F)CC2)ccc1OCc1ccc(C(F)(F)F)cc1)C(=O)O (stereo not drawn)", "> 50%"),
    ("CCCC/C(=C\\c1cc(OCc2ccc3nc(C(F)(F)F)cc(OC)c3c2)ccc1OCc1ccc(C(F)(F)F)cc1)C(=O)O", "> 50%"),
]

* * *

MEASURED_ON: Presenilin-1 (Homo sapiens)
TEST: Activation of wild-type human presenilin-1 stably overexpressed in CHO cells co-expressing wild-type human amyloid precursor protein assessed as amyloid beta 38 formation after 24 hrs by ELISA
Reported log10(EC50) values are given for each entry in this list.
QUANTITY_NAME: log10(EC50) (log10 of the value in µM)

# COMPOUND, log10(EC50)
records = [
    ("CCCC/C(=C\\c1cc(OCC2CCC(C(F)(F)F)CC2)ccc1OCc1ccc(C(F)(F)F)cc1)C(=O)O (centres undefined)", 0.04),
    ("CCCC/C(=C\\c1cc(OCc2ccc3nc(C(F)(F)F)cc(OC)c3c2)ccc1OCc1ccc(C(F)(F)F)cc1)C(=O)O", 0.07),
    ("CCCCC(Sc1nc(OCCC2CCCCC2)cc(OCCC2CCCCC2)n1)C(=O)O (centres undefined)", 0.66),
    ("CCCC/C(=C\\c1cc(OCc2ccc(CCCC)cc2)ccc1OCc1ccc(C(F)(F)F)cc1)C(=O)O", 0.64),
    ("CCCC/C(=C\\c1cc(OCCc2ccc(C(F)(F)F)cc2)ccc1OCc1ccc(C(F)(F)F)cc1)C(=O)O", 0.11),
    ("CCCC/C(=C\\c1cc(OCC(c2ccccc2)c2ccccc2)ccc1OCc1ccc(C(F)(F)F)cc1)C(=O)O", 1.05),
    ("CCCC/C(=C\\c1cc(OC/C=C/c2ccccc2)ccc1OCc1ccc(C(F)(F)F)cc1)C(=O)O", 0.40),
    ("CCCC/C(=C\\c1cc(OCc2csc(-c3ccc(C(F)(F)F)cc3)n2)ccc1OCc1ccc(C(F)(F)F)cc1)C(=O)O", 1.03),
    ("CCCC/C(=C\\c1cc(Oc2ccccc2)ccc1OCc1ccc(C(F)(F)F)cc1)C(=O)O", 1.19),
    ("CCCC/C(=C\\c1cc(OCc2ccc(Oc3ccccn3)cc2)ccc1OCc1ccc(C(F)(F)F)cc1)C(=O)O", 0.65),
    ("CCCC/C(=C\\c1cc(OCc2cc(C(F)(F)F)cc(C(F)(F)F)c2)ccc1OCc1ccc(C(F)(F)F)cc1)C(=O)O", 0.00),
    ("CCCC/C(=C\\c1cc(OCc2cccnc2)ccc1OCc1ccc(C(F)(F)F)cc1)C(=O)O", 1.37),
    ("CCCC/C(=C\\c1cc(OCc2ccc(F)cc2)ccc1OCc1ccc(C(F)(F)F)cc1)C(=O)O", 1.14),
    ("CCCC/C(=C\\c1cc(OCc2ccc(OCCN3CCOCC3)cc2)ccc1OCc1ccc(C(F)(F)F)cc1)C(=O)O", -0.01),
    ("CCCC/C(=C\\c1cc(OCc2ccc(C(F)(F)F)cc2)ccc1OCc1ccc(C(F)(F)F)cc1)C(=O)O", 0.04),
    ("CCCC/C(=C\\c1cc(-c2ccccc2)ccc1OCc1ccc(C(F)(F)F)cc1)C(=O)O", 1.08),
    ("CCCC/C(=C\\c1cc(OCc2cc3ccccc3s2)ccc1OCc1ccc(C(F)(F)F)cc1)C(=O)O", 0.32),
    ("CCCC/C(=C\\c1cc(OCc2ccc(OCc3ccccc3)cc2)ccc1OCc1ccc(C(F)(F)F)cc1)C(=O)O", 0.26),
    ("CCCCC(Sc1nc(OCCc2ccccc2)cc(OCCc2ccccc2)n1)C(=O)O (centres undefined)", 1.05),
    ("CCCC/C(=C\\c1cc(OCc2ccc(-c3csc(C)n3)cc2)ccc1OCc1ccc(C(F)(F)F)cc1)C(=O)O", 0.34),
    ("CCCC/C(=C\\c1cc(OCc2ccccc2)ccc1OCc1ccc(C(F)(F)F)cc1)C(=O)O", 1.15),
    ("CCCC/C(=C\\c1cc(OCc2ccc(Cl)c(Cl)c2)ccc1OCc1ccc(C(F)(F)F)cc1)C(=O)O", 0.51),
    ("CCCC/C(=C\\c1cc(OCc2ccc(-c3ccccc3)cc2)ccc1OCc1ccc(C(F)(F)F)cc1)C(=O)O", 0.51),
]

* * *

Reported Activity values are given for each entry in this list.
MEASURED_ON: Prostaglandin G/H synthase 1 (Ovis aries)
Sequence (whole entry): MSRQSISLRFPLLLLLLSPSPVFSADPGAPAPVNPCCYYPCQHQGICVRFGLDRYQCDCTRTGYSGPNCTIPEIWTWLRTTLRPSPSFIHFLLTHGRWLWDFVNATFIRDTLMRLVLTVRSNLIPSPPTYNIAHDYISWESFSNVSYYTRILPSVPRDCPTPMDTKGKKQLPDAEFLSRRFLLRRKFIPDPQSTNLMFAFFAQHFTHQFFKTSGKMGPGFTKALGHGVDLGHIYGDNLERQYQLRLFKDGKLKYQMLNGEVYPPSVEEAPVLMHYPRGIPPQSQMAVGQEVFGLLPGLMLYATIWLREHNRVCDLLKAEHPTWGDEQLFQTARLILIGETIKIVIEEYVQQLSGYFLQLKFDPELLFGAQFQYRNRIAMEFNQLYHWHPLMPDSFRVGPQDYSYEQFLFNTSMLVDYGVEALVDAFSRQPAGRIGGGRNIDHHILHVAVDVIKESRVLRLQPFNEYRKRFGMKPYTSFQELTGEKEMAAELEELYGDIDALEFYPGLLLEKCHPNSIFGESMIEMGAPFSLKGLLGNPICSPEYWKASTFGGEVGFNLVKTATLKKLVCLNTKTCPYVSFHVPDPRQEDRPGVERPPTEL
TEST: Inhibition of ovine COX1-mediated 12-HHT formation assessed as remaining activity at 10 uM preincubated for 5 mins before arachidonic acid addition by HPLC analysis

# SMILES_REPRESENTATION, Activity (%)
measured = [
    ("CCCC/C(=C\\c1cc(OCc2ccc(F)cc2)ccc1OCc1ccc(C(F)(F)F)cc1)C(=O)O", 78.4),
    ("CCCC/C(=C\\c1cc(OCc2ccc(Oc3ccccn3)cc2)ccc1OCc1ccc(C(F)(F)F)cc1)C(=O)O", 75.7),
    ("CCCC/C(=C\\c1cc(OCc2ccc(OCCN3CCOCC3)cc2)ccc1OCc1ccc(C(F)(F)F)cc1)C(=O)O", 91.3),
    ("CCCC/C(=C\\c1cc(OCCc2ccc(C(F)(F)F)cc2)ccc1OCc1ccc(C(F)(F)F)cc1)C(=O)O", 66.3),
    ("CCCC/C(=C\\c1cc(OCc2ccc3nc(C(F)(F)F)cc(OC)c3c2)ccc1OCc1ccc(C(F)(F)F)cc1)C(=O)O", 69),
]
